- study.system: 6XHIS-N98 D72A (Homo sapiens, UniProt Q9H2C2, D72A)
- Construct: made in house; host or cells: E. coli BL21
- Sequence (Q9H2C2 1-98 D72A): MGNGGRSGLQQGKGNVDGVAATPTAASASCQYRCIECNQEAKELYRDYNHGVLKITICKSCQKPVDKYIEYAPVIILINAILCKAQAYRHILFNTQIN
- test.summary: HTRF phospholipid lipid-binding assay, mutant
- Parameters: key: NC, no change
- condition.notes: biotinylated lipid; NC = no change vs N98

- compound: "CCCCC/C=C\\C/C=C\\CCCCCCCC(=O)OC[C@H](COP(=O)(O)OCC(O)COP(=O)(O)OC[C@@H](COC(=O)CCCCCCC/C=C\\C/C=C\\CCCCC)OC(=O)CCCCCCC/C=C\\C/C=C\\CCCCC)OC(=O)CCCCCCC/C=C\\C/C=C\\CCCCC (some centres unmarked)"
  Bio-PL, EC50, M ± S.D.: "NC"
- compound: "CCCCCCCC/C=C\\CCCCCCCC(=O)OC[C@H](COP(=O)(O)OCC(O)CO)OC(=O)CCCCCCC/C=C\\CCCCCCCC (some centres unmarked)"
  Bio-PL, EC50, M ± S.D.: "NC"
- compound: "CCCCCCCCCCCCCCCCCC(=O)OC[C@H](COP(=O)(O)OC[C@H](N)C(=O)O)OC(=O)CCCCCCCCCCCCCCCCC"
  Bio-PL, EC50, M ± S.D.: "NC"

###

- study.system: GST-ARV1-N98 (N-terminal 98 amino acids, AHD) (Homo sapiens, UniProt Q9H2C2)
- Construct: Expresses amino-terminal 98 amino acids of ARV1; made in house; host or cells: E. coli BL21 (pGEX-4T1)
- Sequence (Q9H2C2 1-98): as the sequence (Q9H2C2 1-98 D72A) above, with A72D counted along it
- test.summary: Protein-lipid liposome binding assay (ultracentrifugation, Western blot)
- condition.notes: protein detected in final pellet
measured.parameter: binding to PC:PL liposomes

- compound: "CCCCCCCCCCCCCCCCCC(=O)OC[C@H](COP(=O)(O)OC[C@H](N)C(=O)O)OC(=O)CCCCCCCCCCCCCCCCC [PS, phosphatidylserine]"
  endpoint.value: "bound"
- compound: "CCCCCCCC/C=C\\CCCCCCCC(=O)OC[C@H](COP(=O)(O)OCC(O)CO)OC(=O)CCCCCCC/C=C\\CCCCCCCC (stereo partly shown) [PG, phosphatidylglycerol]"
  endpoint.value: "bound"
- compound: "CCCCC/C=C\\C/C=C\\CCCCCCCC(=O)OC[C@H](COP(=O)(O)OCC(O)COP(=O)(O)OC[C@@H](COC(=O)CCCCCCC/C=C\\C/C=C\\CCCCC)OC(=O)CCCCCCC/C=C\\C/C=C\\CCCCC)OC(=O)CCCCCCC/C=C\\C/C=C\\CCCCC (stereo partly shown) [CL, cardiolipin]"
  endpoint.value: "bound"
- compound: "CCCCCCCCCCCCCCCC(=O)OC[C@H](COP(=O)(O)O)OC(=O)CCCCCCCCCCCCCCC [PA, phosphatidic acid]"
  endpoint.value: "not"

###

- study.system: 6XHIS-N98 C34/37A (Homo sapiens, UniProt Q9H2C2, C34A/C37A)
- Construct: made in house; host or cells: E. coli BL21
- Sequence (Q9H2C2 1-98 C34A/C37A): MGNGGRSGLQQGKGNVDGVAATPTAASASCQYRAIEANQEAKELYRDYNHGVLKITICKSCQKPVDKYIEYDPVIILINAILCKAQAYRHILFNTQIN
- test.summary: HTRF phospholipid lipid-binding assay, mutant
- Design: key: NC, no change
- condition.notes: biotinylated lipid; NC = no change vs N98
measured.parameter: Bio-PL, EC50, M ± S.D.

- molecule: "CCCCCCCCCCCCCCCCCC(=O)OC[C@H](COP(=O)(O)OC[C@H](N)C(=O)O)OC(=O)CCCCCCCCCCCCCCCCC [PS, phosphatidylserine]"
  endpoint.value: "NC"
- molecule: "CCCCC/C=C\\C/C=C\\CCCCCCCC(=O)OC[C@H](COP(=O)(O)OCC(O)COP(=O)(O)OC[C@@H](COC(=O)CCCCCCC/C=C\\C/C=C\\CCCCC)OC(=O)CCCCCCC/C=C\\C/C=C\\CCCCC)OC(=O)CCCCCCC/C=C\\C/C=C\\CCCCC (stereo partly shown) [CL, cardiolipin]"
  endpoint.value: "NC"
